- TARGET UNDER TEST: GIST430 cell line expressing constitutive active cKIT receptor tyrosine kinase (Δ560-576 deletion) (Homo sapiens, UniProt P10721, DEL560-576)
- Construct: endogenous in cells; host or cells: GIST430 cells
- Sequence (P10721 with tags, fused parts or gaps DEL560-576): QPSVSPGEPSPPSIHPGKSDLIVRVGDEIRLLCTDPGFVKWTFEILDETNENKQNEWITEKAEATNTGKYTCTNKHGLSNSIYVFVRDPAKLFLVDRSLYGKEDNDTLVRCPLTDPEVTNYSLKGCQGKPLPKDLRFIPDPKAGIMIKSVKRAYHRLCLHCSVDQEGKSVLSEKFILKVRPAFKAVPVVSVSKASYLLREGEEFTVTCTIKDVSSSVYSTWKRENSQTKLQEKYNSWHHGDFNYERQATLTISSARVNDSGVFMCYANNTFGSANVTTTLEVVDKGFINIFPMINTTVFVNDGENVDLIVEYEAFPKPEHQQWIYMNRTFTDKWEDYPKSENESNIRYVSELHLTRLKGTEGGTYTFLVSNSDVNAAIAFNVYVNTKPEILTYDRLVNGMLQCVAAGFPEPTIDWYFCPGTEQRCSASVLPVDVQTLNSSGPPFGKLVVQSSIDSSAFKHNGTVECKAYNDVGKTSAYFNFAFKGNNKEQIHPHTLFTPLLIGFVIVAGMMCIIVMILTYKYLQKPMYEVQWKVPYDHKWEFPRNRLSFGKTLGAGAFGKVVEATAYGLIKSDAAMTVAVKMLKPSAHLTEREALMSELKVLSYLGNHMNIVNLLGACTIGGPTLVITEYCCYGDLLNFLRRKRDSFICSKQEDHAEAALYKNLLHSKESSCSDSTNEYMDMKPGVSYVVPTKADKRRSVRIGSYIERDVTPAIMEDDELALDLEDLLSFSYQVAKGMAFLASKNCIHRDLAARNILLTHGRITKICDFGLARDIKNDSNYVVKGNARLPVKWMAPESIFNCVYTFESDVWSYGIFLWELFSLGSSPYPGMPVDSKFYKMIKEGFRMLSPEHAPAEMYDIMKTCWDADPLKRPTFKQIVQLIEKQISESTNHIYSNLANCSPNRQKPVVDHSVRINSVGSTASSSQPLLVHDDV
- EXPERIMENTAL PROTOCOL: Cellular cKIT autophosphorylation (phospho-Y307-cKIT, Luminex bead assay) in GIST430 cells
- Type: cell-based
- CONDITION LABEL: cKIT autophosphorylation, GIST430 cells, compounds 45 min; read-out: GIST 430 IC50
Examples of compounds with documented pIC50 follow.
pIC50 is defined as minus the log10 of a concentration measured in mol/L.

Worked set:
compound="FC1(F)CCN(c2ccc(CNc3cc(-c4cnc5ccccn45)ncn3)cn2)C1 [A150]" observed_measurement=7.92
compound="Cn1ncc(-c2ccc(CNc3cc(-c4cnc5cc(OCC(C)(C)O)ccn45)ncn3)cc2)n1 [A85]" observed_measurement=8.48
compound="Cc1nc(-c2ccc(CNc3cc(-c4cnc5cc(OCCN6CCn7nncc7C6)ccn45)ncn3)cc2)co1 [A264]" observed_measurement=8.96
compound="Cn1cc(-c2ccc(CNc3cc(-c4cnc5cc(OCCN6CCCC6)ccn45)ncn3)cc2)cn1 [A60]" observed_measurement=8.31
compound="Cn1cc(-c2ccc(CNc3cc(-c4cnc5cc(OCC6CCN(C7COC7)CC6)ccn45)ncn3)cc2)cn1 [A78]" observed_measurement=8.44
compound="Cn1cc(-c2ccc(CNc3cc(-c4cnc5cc(N6CCC(CCO)C6)ccn45)ncn3)cc2)cn1 (stereo not drawn) [A178]" observed_measurement=8.42
compound="Cn1cc(-c2ccc(CNc3cc(-c4cnc5cc(OCCO)ccn45)ncn3)cc2)cn1 [A172]" observed_measurement=8.57
compound="Cn1ncc(-c2ccc(CNc3cc(-c4cnc5cc(OCCN6CC7(COC7)C6)ccn45)ncn3)cc2)n1 [A108]" observed_measurement=8.82
compound="COCCOc1ccn2c(-c3cc(NCc4ccc(-c5cnn(C)c5)cc4)ncn3)cnc2c1 [A4]" observed_measurement=8.32
compound="Cn1cc(-c2ccc(CNc3cc(-c4cnc5cc(OCCCNC6COC6)ccn45)ncn3)cc2)cn1 [A258]" observed_measurement=8.57

Now look at this one.
input: Returns the measured pIC50 for the input compound. Input: COCCOc1ccn2c(-c3cc(NCc4ccc(-n5ccnn5)cc4)ncn3)cnc2c1 [A16]
output: 8.38
